These entries and their values trace back to patent US11034681B2.

Experiment: Plasma pharmacokinetic assay in mice
Assay type: in vivo
Details: mouse, po, female C57 BL/6 mice, intragastric 5 mg/kg, read-out: Plasma Exposure of Intragastric Administration (AUC, nM*hr)
Protocol: Twelve female C57 BL/6 mice were used in plasma pharmacokinetic assay, randomly divided into two groups, with 6 animals in each group. Animals in the first group were administered intravenously 1 mg/kg of the test drug, and animals in the second group were administered intragastrically 5 mg/kg of the test drug. A formula comprising HPbCD and cosolvent (Solutol®) was used as formulation vehicle, and the obtained intravenous or intragastric formulations were all clear solutions. […]
property-label: AUC (nM·h)
One number for each entry, in nM·h.

Challenge: Return reported AUC; argument: Cc1c(Cc2ccc3c(c2)C(F)(F)CCS3(=O)=O)c2cc(F)ccc2n1CC(=O)O [Crystal Form A of Compound 1]
Response given: 26000
